Hey, just so you know, these numbers are from PubChem BioAssay.

# procedure.details: budding yeast growth modifiers under rapamycin – strain BY4716, OD600, 96 h, primary screen (AID 1091); further: test concentration not given here
# protocol.conditions: S. cerevisiae BY4716 + rapamycin, higher = more signal, called active from +8 up or from −8 down
Reported values of z-score for individual entries
readout: z-score

1. [N-]=[N+]=NCc1ccccc1C[C@]1(C(=O)NCCN2CCOCC2)N=C(c2ccc(OCCCO)cc2)O[C@H]1c1ccccc1CN=[N+]=[N-] ... -0.802
2. C=CCN1Cc2ccccc2C[C@]2(N=C(c3ccc(OCCCO)cc3)O[C@@H]2c2ccccc2)C1=O ... 0.272
3. CO[C@H]1O[C@H](CO)[C@@H](OC(=O)Nc2ccc(C(F)(F)F)cc2)[C@H](OC(=O)Nc2ccccc2)[C@@H]1OC(=O)Nc1ccccc1 ... 0.168
4. O=C1C2C=CC(C(O)c3ccc(-c4ccccc4)s3)N(Nc3ccccc3F)C2C(=O)N1c1ccccc1 (stereo not drawn) ... 1.58
5. CCCC[C@H]1OB(O)C[C@H]2C1=C(C)Cn1c(=O)n(-c3ccccc3)c(=O)n12 ... 0.261
6. Cc1ccc([C@H]2C(C(=O)O)=C[C@@H](C(C)C)N2S(=O)(=O)c2ccc(C)cc2)cc1 ... -0.128
7. COCCCNC(=O)[C@@]1(Sc2ccc(C)cc2)CC(=O)N(Cc2ccccc2)[C@@H]1c1ccc(CO)cc1 ... -0.455
8. CC1(C)C(=O)C(c2ccccc2)=C2CN3C(=O)N(CCc4ccccc4)C(=O)C3(Cc3ccccc3)C=C21 (stereo not drawn) ... 5.82

====

# procedure.details: COS7 lysate on small-molecule microarray, probe aHis, 635 nm (AID 1123);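 further: z-score combines 667nm fluorescence intensity with signal-to-noise per printed compound spot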
# protocol.conditions: COS7 cell lysate, fluorescence, higher = more signal
readout: composite z-score

1) [N-]=[N+]=NCc1ccccc1[C@@H]1OC(c2ccc(OCCCO)cc2)=N[C@]1(Cc1ccccc1)C(=O)O ... 2.25
2) C=CC[C@@]1(C(=O)NCCN2CCOCC2)N=C(c2ccc(OCCCO)cc2)O[C@@H]1c1ccccc1CN=[N+]=[N-] ... 2.9
3) O=C1C2C=CC(C(O)C3CC=CCC3)N(n3cnnc3)C2C(=O)N1Cc1ccccc1 (centres undefined) ... 0.233
4) CN1C(=O)C2C(C1=O)C1C=C(c3ccc(CO)cc3)C2C(C2CC2)N1Cc1sc2ccccc2c1Cl (centres undefined) ... 2.59

====

# system.under.test: Follistatin-related protein 3 (Homo sapiens) (UniProt O95633)
# Sequence (O95633 whole entry, looked up): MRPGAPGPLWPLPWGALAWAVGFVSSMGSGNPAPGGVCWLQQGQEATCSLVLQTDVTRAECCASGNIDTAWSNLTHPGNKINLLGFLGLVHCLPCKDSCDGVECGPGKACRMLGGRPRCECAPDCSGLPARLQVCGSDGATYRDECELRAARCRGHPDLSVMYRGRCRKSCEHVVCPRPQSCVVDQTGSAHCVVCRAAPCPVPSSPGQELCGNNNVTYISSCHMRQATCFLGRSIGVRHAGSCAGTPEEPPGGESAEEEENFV
# procedure.details: compounds binding follistatin-related protein 3 – biochemical, small-molecule microarray, 635 nm fluorescence, primary screen (AID 1105);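 further: score merges emission near 667 nm and signal to noise per printed spot across three slides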
# protocol.conditions: FSTL3 binding, higher = more signal
readout: composite z-score

1) C=CCOC(=O)[C@@H]1[C@H]2C(=O)O[C@H](c3ccccc3)[C@H](c3ccccc3)N2[C@H](c2ccc(OCCOC(=O)[C@H]3C[C@H]4C(=O)N[C@@H](CC(C)C)C(=O)N4[C@H]3c3cccc(OCCO)c3)cc2)[C@@]12C(=O)Nc1ccc(I)cc12 ... 1.25
2) COc1c(C)cc(-c2cc3c(c(-c4ccccc4)n2)[Si](C(C)C)(C(C)C)O[C@H]3c2ccccc2)cc1C ... 0.168
3) O=C1C2C=CC(C(O)C3CC=CCC3)N(n3cnnc3)C2C(=O)N1Cc1ccccc1 (stereo not given) ... -1
4) C[C@H]1C2[C@H](Cc3ccccc3)NC(=O)[C@]23C(=O)N[C@H](Cc2ccccc2)C(=O)N[C@H](Cc2ccccc2)C(=O)NC/C=C/CCC/C=C/C3[C@@H]2O[C@]12C (stereo not given in full) ... 1.4
5) COCCOC(=O)N1C(=O)[C@@]2(c3cc(C#CC4=CCCCC4)ccc31)[C@H](c1ccc(OCCO)cc1)N1[C@H](c3ccccc3)[C@H](c3ccccc3)OC(=O)[C@H]1[C@@H]2C(=O)Nc1nc2ccccc2s1 ... 1.12
6) [N-]=[N+]=NCc1ccccc1C[C@]1(C(=O)NCc2ccccc2)COC(c2ccc(OCCCO)cc2)=N1 ... -0.109
7) O=C1OCC=C[C@H]2OC34C=CCN(c5ccc6ccccc6c5)C(=O)[C@H]3N(CCO)C(=O)[C@@H]4[C@@H]12 (stereo not given in full) ... -1.33
8) Oc1ccc2cc[n+](Cc3cccc(OC(F)(F)F)c3)cc2c1 ... 1.24
9) C=C[C@H](C)[C@H](O)c1ccc(OCCO)cc1 ... -0.607
10) COc1ccc([Si](C)(C)[C@@H]2[C@@H](CCO)O[C@]3(C(=O)N(Cc4ccccc4)c4ccc(N(C=O)c5ccccc5)cc43)[C@H]2C)cc1 ... -0.0895
11) C[n+]1ccc2ccc(O)cc2c1 ... 1.45
12) CC(C)(C)OC(=O)CC[C@@]1(C(=O)NCC(O)CO)N=C(c2ccc(OCCCO)cc2)O[C@@H]1c1ccccc1 (stereo not given in full) ... -0.583
13) O=C1C2C=CC(C(O)c3ccccn3)N(Nc3ccccc3F)C2C(=O)N1c1ccccc1 (stereo not given) ... -0.0532
14) Cc1c(NC(=O)/C(C#N)=C/C=C/c2ccccc2)c(=O)n(-c2ccccc2)n1C ... 0.573
15) CO[C@H]1O[C@H](CO)[C@@H](OC(=O)Nc2ccc(C(F)(F)F)cc2)[C@H](OC(=O)Nc2ccccc2)[C@@H]1OC(=O)Nc1ccccc1 ... 0.743

====

# procedure.details: JC-1 mitochondrial signal, unstimulated HepG2 cells – cell-based, JC-1 fluorescence, 24 h, 100 nL compound, profiling panel (AID 1167); further: test concentration not given here
# protocol.conditions: HepG2 mitochondrial potential, higher = more signal
readout: z-score

1) [N-]=[N+]=NCc1ccccc1C[C@@]1(C(=O)NCc2ccccc2)N=C(c2ccc(OCCCO)cc2)O[C@@H]1c1ccccc1CN=[N+]=[N-] ... 0.0212
2) O=[N+]([O-])c1ccc(C[n+]2ccc(CCCO)cc2)o1 ... -1.07
3) Oc1ccc2cc[n+](Cc3cccc(OC(F)(F)F)c3)cc2c1 ... 0.303
4) C=CCC(OC(C)=O)[C@@H]1[C@@H](N(Cc2ccc(-c3ccccc3)cc2)C(=O)c2ccc(C)cc2)c2cc(OCCCO)ccc2N1C(=O)c1ccc2ccccc2n1 (some centres undefined) ... 3.31

====

# system.under.test: Calmodulin-1 (Homo sapiens)
# procedure.details: small molecules binding Ca-loaded calmodulin-1 – biochemical, small-molecule microarray, Cy5-labelled CALM1, plus calcium, artefact control for SMM control-protein annotation, profiling panel (AID 1112);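 further: score merges spot fluorescence with signal to noise from triplicate slides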
# protocol.conditions: Cy5-CALM1 binding fluorescence, higher = more signal
readout: composite z-score

1. C=C[C@H](C)[C@H](O)c1ccc(OCCO)cc1 ... 0.486
2. CC(C)C(CO)N1C(=O)[C@@H]2[C@H]3C(=O)OCC=C[C@H]3OC23C=CCN(c2ccc4ccccc4c2)C(=O)[C@@H]13 (stereo partly drawn) ... -0.367
3. O=C1OCCC/C=C\[C@H]2OC34C=CCN(CCN5CCOCC5)C(=O)[C@H]3N(CCO)C(=O)[C@@H]4C12 (stereo partly drawn) ... 0.124
4. CCCNC(=O)[C@@]1(C)c2ccccc2C(=O)N(C(C)C)[C@H]1c1ccc(CO)cc1 ... -0.145
5. COC(=O)[C@@]1(Cc2ccc(OC)cc2)[C@H]2c3cc(C(=O)N4CCCC4)n(CCc4ccccn4)c3C[C@H]2CN1C(=O)c1ccccc1 ... 0.61
6. O=C1OCCC=C[C@H]2OC34C=CCN(CCN5CCOCC5)C(=O)[C@H]3N(CCO)C(=O)[C@@H]4C12 (stereo partly drawn) ... -1.21
7. C=CCCN(CC#C[C@H]1Oc2ccccc2S(=O)(=O)N2CCC[C@@H]12)S(=O)(=O)c1ccc(C)cc1 ... -0.863
8. O=C1C2C=CC(C(O)c3ccc(-c4ccccc4)s3)N(Nc3ccccc3F)C2C(=O)N1c1ccccc1 (stereo not drawn) ... 1.24

====

# procedure.details: JC-1 mitochondrial potential readout, lung cancer cells – cell-based, A549, JC-1 fluorescence, basal, 24 h, 100 nL, profiling panel (AID 1138);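 further: A549 lung adenocarcinoma cells under basal conditions with no added stimulus; test concentration not given here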
# protocol.conditions: higher = more signal
Reported values of z-score for individual entries
readout: z-score

1) CC(C)(C)OC(=O)CC[C@]1(C(=O)NCC(O)CO)N=C(c2ccc(OCCCO)cc2)O[C@H]1c1ccccc1CN=[N+]=[N-] (some centres undefined) ... -0.101
2) CCCCCCCCCCC(O)C1C=CC2C(=O)N(c3ccccc3)C(=O)C2N1Nc1ccc([N+](=O)[O-])cc1 (centres undefined) ... 2.09
3) CO[C@H]1O[C@H](CO)[C@@H](OC(=O)Nc2ccccc2-c2ccccc2)[C@H](OC(=O)Nc2ccccc2-c2ccccc2)[C@H]1OC(=O)Nc1ccccc1-c1ccccc1 ... 0.147
4) [N-]=[N+]=NCc1ccccc1C[C@]1(C(=O)N2CCOCC2)N=C(c2ccc(OCCCO)cc2)O[C@H]1c1ccccc1 ... 0.078
5) CC(C)NC(=O)[C@@H]1c2ccccc2C(=O)N(C2CCCCC2)[C@H]1c1ccc(CO)cc1 ... 0.483
6) CCCCCCC#C[Si](O[C@H](c1ccccc1)c1cn([C@H](C)c2ccccc2)nn1)(C(C)C)C(C)C ... 3.27
7) C[N+](C)(C)CCCC[C@@H]1NC(=O)[C@@H]2C[C@H](C(=O)NCCCCCCNC(=O)CS)[C@H](c3cccc(OCCO)c3)N2C1=O ... 0.332
8) CC(C)C(=C=CC[C@H](O)c1ccccc1OCCO)CCO ... 0.205
9) O=C(NCC(F)(F)F)[C@@H]1c2ccccc2C(=O)N(Cc2ccccc2)[C@H]1c1ccc(CO)cc1 ... 0.764
10) NC(=O)NCC#Cc1ccc2c(c1)[C@]1(C(=O)N2)[C@H](c2ccc(O)cc2)N2[C@H](c3ccccc3)[C@H](c3ccccc3)OC(=O)[C@H]2[C@@H]1C(=O)N1CCN(c2ncccn2)CC1 ... -1.1
11) COCCOC(=O)N1C(=O)[C@@]2(c3cc(C#CC4=CCCCC4)ccc31)[C@H](C(=O)N1CCN(c3ncccn3)CC1)[C@H]1C(=O)O[C@H](c3ccccc3)[C@H](c3ccccc3)N1[C@@H]2c1ccc(OCCO)cc1 ... -1.01
12) CCN(CC)c1ccc(N2CC=CC34O[C@@H]5C=CCOC(=O)[C@@H]5[C@H]3C(=O)N(CCCCCO)[C@@H]4C2=O)cc1 (some centres undefined) ... 1.24
13) COc1ccc([Si](C)(C)[C@@H]2[C@@H](CCn3cc([C@H](O)c4ccccc4)nn3)O[C@]3(C(=O)N(C)c4ccccc43)[C@H]2C)cc1 ... -0.0374
14) C=C(CCCC)C(=O)CC[C@@H](OC(=O)c1ccccc1-c1ccccc1C(=O)O)c1ccc(CO)o1 ... 0.31
